experimental-system: T1, 4H3462-bA
T1 chain: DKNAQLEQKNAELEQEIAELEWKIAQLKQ
assay-comment: two-hybrid library CCNG1;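 further: natural log of median RNA to DNA barcode read ratio; higher means stronger binding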
recorded-endpoint: interaction score

binder	experimental-value
DENAQLKQENAELEQKIAELKWKIAQLKQ [4H1710-bA]	1.04

I. DENAQLKQKNAELKQEIAELEWEIAQLEQ [4H1985-bA]
II. DKNAQLEQENAELKQKIAELEWEIAQLKQ [4H3298-bA]
# returns the entry with the larger interaction score; inputs I and II Write down the label attached to your selection.
II
(II: 0.667, I: -0.708)
